- TARGET DESC: T1, human MSLN-FL-his protein (human, UniProt Q13421 296-580)
- T1 construct: Made in HEK293E cells, purified on nickel column; it is put last here; also called human MSLN full-length protein; hMSLN-FL-his; not shown: His tag
- T1 sequence (Q13421 other isoform, or with tags, fused parts or gaps): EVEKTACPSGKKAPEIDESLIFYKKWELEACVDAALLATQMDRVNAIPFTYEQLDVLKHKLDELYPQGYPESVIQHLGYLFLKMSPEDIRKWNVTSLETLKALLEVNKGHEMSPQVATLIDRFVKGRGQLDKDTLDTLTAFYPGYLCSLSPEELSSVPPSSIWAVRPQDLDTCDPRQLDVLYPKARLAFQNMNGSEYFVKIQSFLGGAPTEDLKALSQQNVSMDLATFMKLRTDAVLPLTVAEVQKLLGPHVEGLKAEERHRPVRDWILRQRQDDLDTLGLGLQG
- EXPERIMENT DESCRIPTION: ELISA on coated antigen, no antibody (blank, column 'none')
EXPERIMENTAL ENDPOINT: OD450 (OD)
Numbers only, in OD.

Completed entries (count: 2):
S009-F8-8.22 (antibody, human IgG1, kappa, V domains shown, Human-murine chimeric antibody, human IgG1 heavy and kappa light constant regions) VH: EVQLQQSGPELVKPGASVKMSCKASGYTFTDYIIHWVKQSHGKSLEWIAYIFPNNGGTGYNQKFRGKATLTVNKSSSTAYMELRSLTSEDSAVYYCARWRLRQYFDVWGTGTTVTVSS VL: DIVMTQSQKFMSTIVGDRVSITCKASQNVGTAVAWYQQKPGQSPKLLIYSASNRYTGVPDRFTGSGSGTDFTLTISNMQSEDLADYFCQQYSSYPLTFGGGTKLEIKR	0.05
S009-F8-15.19 (antibody, human IgG1, kappa, V domains shown, Human-murine chimeric antibody, human IgG1 heavy and kappa light constant regions) VH: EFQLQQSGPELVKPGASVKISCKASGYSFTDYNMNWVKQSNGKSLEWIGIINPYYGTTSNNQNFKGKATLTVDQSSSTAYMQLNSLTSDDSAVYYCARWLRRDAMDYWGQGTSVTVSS VL: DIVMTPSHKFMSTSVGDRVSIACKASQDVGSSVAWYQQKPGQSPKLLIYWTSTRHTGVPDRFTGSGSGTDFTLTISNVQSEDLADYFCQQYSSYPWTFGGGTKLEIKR	0.05

Please examine the following record next.
State its OD450: S009-F8-18.9 (antibody, human IgG1, kappa, V domains shown, Human-murine chimeric antibody, human IgG1 heavy and kappa light constant regions) VH: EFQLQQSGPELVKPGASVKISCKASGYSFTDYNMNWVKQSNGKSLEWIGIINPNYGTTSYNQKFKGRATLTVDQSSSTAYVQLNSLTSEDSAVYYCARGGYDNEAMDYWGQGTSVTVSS VL: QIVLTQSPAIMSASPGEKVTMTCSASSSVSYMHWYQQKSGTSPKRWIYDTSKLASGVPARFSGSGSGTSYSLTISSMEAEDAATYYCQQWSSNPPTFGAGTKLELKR
0.05
